system: SW-620 colon; assay: NCI tumour cell line growth inhibition, 48 h
Below: a set of entries, each annotated with reported TGI.

Observe how each entry below is paired with its result.
# compound, result
data = [
    ("Cc1cc(S(=O)(=O)Nc2nc(N)n(-c3ccccn3)n2)c(S)cc1Cl", "> 100 µM"),
    ("CC1(C)OC2=C(CC1Br)C(=O)C(=O)c1ccccc12 (stereo unspecified)", "3.49 µM"),
    ("CCN(CC)CCCC(C)Nc1c2ccc(Cl)cc2nc2ccc(O)cc12 (stereo unspecified)", "4.13 µM"),
]

Give the measured TGI for CC1(C)C2CCC(CN)(C2)C1N (stereo unspecified)
> 100 µM

Give the measured TGI for O=C1CCC2(c3ccccc3)Nc3ccncc3N12 (stereo unspecified)
> 10 µM

Give the measured TGI for COC(=O)c1cc(C)ccc1C1CN=NC12Cc1ccc(C)cc1C2=O (stereo unspecified)
> 100 µM
